Where do the numbers come from? From PubChem BioAssay (NCI).

- Test system: EKVX NSCLC
- assay.overview: NCI-60 one-dose screen, 48 h (100 = growth as untreated, 0 = no growth, -100 = all killed)
- condition.details: 10 µM unless noted
This is part of a sample that, as a whole, favours compounds with a hit. Of some 83,000 tested, about 20% had one in any assay. The source made the active and inactive calls. The calls were made as follows: active = growth percent below 10; inactive = the rest.
// reported growth per item

{"columns": ["compound", "experimental.system", "growth"],
 "data": [
  ["CC(=O)N(CCCCCCN(C(C)=O)C(C)=O)C(C)=O", "EKVX NSCLC", "106% [100 µM] (inactive)"],
  ["Cc1cc(CC(=O)NCCO)n(CCO)c(=O)c1", "EKVX NSCLC", "93.7% (inactive)"],
  ["Cc1cc(C)cc(OCC(=O)O)c1", "EKVX NSCLC", "101% (inactive)"],
  ["BrCc1cccc(C[P+](c2ccccc2)(c2ccccc2)c2ccccc2)c1", "EKVX NSCLC", "44.6% (inactive)"],
  ["CC(=O)c1ccc(C)cc1", "EKVX NSCLC", "98.5% (inactive)"],
  ["CCOP(=O)(OCC)/C(=C\\N1C(=O)CC(=O)NC1=S)C(=O)OC", "EKVX NSCLC", "98.9% (inactive)"],
  ["CCCC1OC(c2ccco2)OCC1CC (centres undefined)", "EKVX NSCLC", "96.4% (inactive)"],
  ["CC(C)(C)NCCC(O)c1cc(C(F)(F)F)nc2c(C(F)(F)F)cccc12 (centres undefined)", "EKVX NSCLC", "86.7% (inactive)"],
  ["CCCCn1cnc2c(=O)[nH]cnc21", "EKVX NSCLC", "97.9% (inactive)"],
  ["CCCCCC#CC(=O)O", "EKVX NSCLC", "99.8% (inactive)"],
  ["O=C(O)c1ccc(OCc2ccccc2)cc1", "EKVX NSCLC", "110% (inactive)"],
  ["CC(C)OCC(CCl)OC(=O)Nc1ccccc1 (centres undefined)", "EKVX NSCLC", "104% (inactive)"],
  ["C=CCc1cc(OC)c(O)c(OC)c1", "EKVX NSCLC", "101% (inactive)"],
  ["N#CC1(O)CCCCC1", "EKVX NSCLC", "101% (inactive)"],
  ["S=C(NCc1ccccc1)N1CCC(CCCC2CCN(C(=S)NCc3ccccc3)CC2)CC1", "EKVX NSCLC", "83.5% (inactive)"],
  ["Cc1cc(C(=O)NN)c(C#N)c(=O)[nH]1", "EKVX NSCLC", "109% (inactive)"],
  ["O=C(O)Cc1ccc(Cl)cc1", "EKVX NSCLC", "79.2% (inactive)"],
  ["Cc1ccc(N2C(=O)c3cccc4c(N)c(S(=O)(=O)O)cc(c34)C2=O)cc1", "EKVX NSCLC", "113% (inactive)"],
  ["C=C1C(=O)C2CCN1CC2", "EKVX NSCLC", "103% (inactive)"],
  ["O=C(O)CSCC(=O)Nc1cc(C(F)(F)F)ccc1Cl", "EKVX NSCLC", "105% (inactive)"],
  ["CC(=O)Nc1ncc(S(=O)(=O)c2ccc([N+](=O)[O-])cc2)s1", "EKVX NSCLC", "114% (inactive)"],
  ["c1ccc(Nc2ccccn2)nc1", "EKVX NSCLC", "91.8% (inactive)"],
  ["OCCc1ccc(Cl)cc1", "EKVX NSCLC", "97.9% (inactive)"],
  ["Nc1ccn(C2CC(N)C(CO)O2)c(=O)n1 (centres undefined)", "EKVX NSCLC", "100% (inactive)"],
  ["NCCCN1CCCC1=O", "EKVX NSCLC", "122% (inactive)"],
  ["Cc1ccc([N+](=O)[O-])c(C)n1", "EKVX NSCLC", "97.2% (inactive)"],
  ["CC1(C)OC2C(CO)OC(n3ccc(=O)[nH]c3=O)C2O1 (centres undefined)", "EKVX NSCLC", "104% (inactive)"],
  ["NNc1ncnc2nc[nH]c12", "EKVX NSCLC", "69.7% (inactive)"],
  ["CCC1CCC(C)NC1 (centres undefined)", "EKVX NSCLC", "92.5% (inactive)"]
]}
